- System: AncSZ;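 also: 11-residue human phosphosite peptides and single-mutation variants displayed on the E. coli surface, counted by deep sequencing, each peptide's frequency after selection divided by its frequency in the unselected input library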;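 also: frequency after pTyr selection over input frequency; kinase dosed for 20-30% of maximal phosphorylation in three min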
- run.description: phosphorylation enrichment, bacterial display (enrichment ratio); higher = better substrate or ligand; peptides without Tyr show the background
So basically: phosphorylation enrichment at 1 or higher? That is T. Lower than 1? That is F.

INSERT INTO assay_data (sequence_record, assigned_category) VALUES
  ('TQPSPYAVYLF [RPGRIP1_Y823_R827L]', 'T'),
  ('TTPFNYSFIFK [RAB14_Y8_A4T_YF]', 'T'),
  ('SIKDKYVTVLY [KCNH2_Y611_A614V]', 'F'),
  ('DSLASYLDKVR [KRT10_Y160_R156S]', 'F'),
  ('NDTAGYFVIGG [SEL1L3_Y399_I401V]', 'T'),
  ('HNLPIYEGFAL [ACTA1_Y168_V165L_YF]', 'T'),
  ('SQSAKYDMAED [TTC21B_Y1213_I1208S]', 'F'),
  ('TGTQLYGRFGS [ITGA2B_Y384]', 'F'),
  ('GRSTCYWPRPR [GAGE12J_Y10_Y9C]', 'F'),
  ('IVEFAYNDKAV [PUM3_Y259_I264V_YF]', 'T'),
  ('ILTLKYLIEHG [ACTG1_Y69_P70L]', 'T'),
  ('ATGGFYSYGGG [KRT24_Y120]', 'F'),
  ('DGKFSYLKVGH [GRM3_Y480_G475D_YF]', 'F'),
  ('FGLDRYQCDCT [PTGS1_Y54]', 'T'),
  ('IRYPPYTDWNQ [ALDH3B2_Y365_H361R]', 'F'),
  ('AEEKEYHAEGG [EGFR_Y869]', 'T'),
  ('DISEPYEVFRI [IRF8_Y107_K108E_YF]', 'T'),
  ('MKTISYETLIA [DOCK10_Y1350]', 'F'),
  ('PDSVDYPKKGF [CTSK_Y121_R122P_YF]', 'T'),
  ('FLTQHYDAIPQ [ANG_Y38_K41I]', 'F'),
  ('GGTTLYPGIAD [ACTC1_Y308_M307L]', 'F'),
  ('ENRLDYGSAWA [AR_Y395_P392R]', 'F'),
  ('SVTCTYSPALT [TP53_Y126_N131T]', 'T'),
  ('FSGDFYRIQGR [DDR2_Y741_YF]', 'F'),
  ('GPIFRYDSGGA [CYP11B1_Y81_L83S]', 'F'),
  ('METKGYQSLPE [NR3C2_Y6_H7Q]', 'F');
